Run Description: qHTS assay to identify small molecule agonists of the endoplasmic reticulum stress response signaling pathway - cell viability counter screen (AID 1159517);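 note: HeLa cells carrying an ER stress response element beta-lactamase reporter; nearly all actives have a fitted effect of over 50% in size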
Assay Setup: ESRE-bla HeLa viability, CellTiter-Glo luminescence, 5 h; series mostly up to 61 µM
Inconclusive results are not listed. Active and inactive are the calls of the source. Calls come from the whole dose curve.
Recorded Metric: activity change, negative = cytotoxicity

Worked cases, activity change, negative = cytotoxicity given:
Molecule	activity change, negative = cytotoxicity
CC(=O)O[C@@]12CO[C@@H]1C[C@H](O)[C@@]1(C)C(=O)[C@H](O)C3=C(C)[C@@H](OC(=O)[C@H](O)[C@@H](NC(=O)OC(C)(C)C)c4ccccc4)C[C@@](O)([C@@H](OC(=O)c4ccccc4)[C@H]21)C3(C)C	inactive
C1CCC2(CCCCO2)OC1	inactive
O=S(=O)(O)c1cccc2ccccc12	inactive
CC(=O)Nc1ccc(OCC(O)CNC(C)C)cc1 (stereo unspecified)	inactive
C=CC(C)(CCC=C(C)C)OC(=O)CC (stereo unspecified)	inactive

Ask: Fill in: activity change, negative = cytotoxicity of COc1c(N2CCNC(C)C2)c(F)cc2c(=O)c(C(=O)O)cn(C3CC3)c12 (stereo unspecified) is ___
Result: inactive

Ask: Fill in: activity change, negative = cytotoxicity of CCN(Cc1ccccc1)c1ccccc1 is ___
Result: inactive

Ask: Fill in: activity change, negative = cytotoxicity of CCCCCCCCN1CCCC1=O is ___
Result: inactive

Ask: Fill in: activity change, negative = cytotoxicity of Cc1nc(C2CCCCC2)c(-c2ccc(S(N)(=O)=O)c(F)c2)o1 is ___
Result: inactive

Ask: Fill in: activity change, negative = cytotoxicity of CC[N+](CC)(CC(=O)Nc1c(C)cccc1C)Cc1ccccc1 (tested in a mixture with another compound) is ___
Result: inactive

Ask: Fill in: activity change, negative = cytotoxicity of Clc1cc(Cl)cc(Cl)c1 is ___
Result: inactive

Ask: Fill in: activity change, negative = cytotoxicity of NC(CCC(=O)O)C(=O)O (stereo unspecified) is ___
Result: inactive

Ask: Fill in: activity change, negative = cytotoxicity of NO is ___
Result: inactive
